Please respond with reported TGI for every item in the list.
Test system: A498 renal
TEST_METHOD_NOTES: NCI tumour cell line growth inhibition, 48 h
Write it as a number; the unit µM goes unstated.

## Input I have this compound here, CC1=NN(c2ccc(C)cc2)C2(C1)SCC(=O)N2c1nc2ccccc2s1 (configuration not stated) , and I need its recorded TGI.
## Output 70.6

## Input Entry under review: `c1ccc2c(c1)nc(NCCN1CCNCC1)c1c3ccccc3[nH]c21` . Reported TGI?
## Output 3.27

## Input What value of TGI has been recorded for this entry: CC(C)(CN1CCCCC1)C(=O)CC(SCCS(=O)(=O)O)c1ccc(Br)cc1 (configuration not stated)
## Output 5.73

## Input Request the reported TGI associated with `COc1ccccc1Cn1cc2c(c1)-c1oncc1CC2`
## Output 3.44

## Input Data request, read-out TGI, for `O=C(Nc1cccc2nsnc12)c1cc2c(cc1Cl)Sc1nccn1S2(=O)=O`
## Output 26.5

## Input Dear colleague, I am looking for the recorded TGI of the following compound: `CC[C@@]1(OC(=O)CN)C(=O)OCc2c1cc1n(c2=O)Cc2cc3cc(N)ccc3nc2-1`
## Output 0.337

###

System: NCI-H23 lung
TEST_METHOD_NOTES: NCI tumour cell line growth inhibition, 48 h; in the data active = GI50 below about 0.43 µM; inactive = the rest
The reply should name one outcome from active, inactive

## Input Recorded call for `CC[C@]12C=CCN3CC[C@]4(C(=C(C(=O)OC)C1)Nc1cc(O)ccc14)[C@@H]32` ?
## Output inactive

## Input Could you check what this test reported for `O=C(/C=C/N1CCN(c2cccc(C(F)(F)F)c2)CC1)c1ccc(Cl)cc1Cl` ?
## Output inactive

## Input For `COc1ccc2nc3ccc(OC)cc3c(SCCCN)c2c1` , which call appears in the assay record?
## Output inactive

## Input Please indicate how the test categorized `COc1cc[nH]c1/C=C1\C(=O)Nc2ccc(F)c(C#CC3(O)CCOCC3)c21` .
## Output inactive

## Input Hi team, can someone confirm the assay call for `CCN(CC)CCC(=O)Nc1ccc(Cn2nnc3c2C(=O)c2nnn(Cc4ccc(NC(=O)CCN(CC)CC)cc4)c2C3=O)cc1` ?
## Output active

###

Provide the recorded TGI for the entries that follow.
System: SF-295 CNS
TEST_METHOD_NOTES: NCI tumour cell line growth inhibition, 48 h

## Input Field request: TGI | item: Cc1nn(-c2ccccc2)c2c1C1C(=C(c3ccc(Cl)cc3)N2)C(=O)Nc2ccccc21 (stereo unspecified)
## Output 7.77 µM

## Input Would you mind telling me what TGI value was observed for CC1=NNC(N)=N/C1=C/C(Sc1ccc(Cl)cc1)c1cccs1 (stereo unspecified) ?
## Output 31.3 µM

## Input Could you tell me which TGI is on file for `CN(C)CCCn1c2ccccc2c2cnccc21` ?
## Output > 100 µM

## Input Looking for the measured TGI of O=C1c2ccccc2NC2C(O)c3ccccc3N12 (stereo unspecified) , can you help?
## Output > 100 µM

## Input Look up TGI: `CC(C)=CCN(N=O)c1ncnc2nc[nH]c12`
## Output > 100 µM

## Input What measured TGI goes with `Cc1ccc2c(c1)c(=O)c1c(NCCN(C)C)ccc3nnn2c31` ?
## Output 15.4 µM

## Input Record request: TGI value, item `COC(=O)c1cc(Nc2ccc(O)c3c2C(=O)c2c([N+](=O)[O-])ccc(O)c2C3=O)cc(C(=O)OC)c1`
## Output > 100 µM

## Input So what does the record say about TGI for `Cc1ccc(Nc2nc(=O)[nH]c(=O)[nH]2)cc1N` ?
## Output > 100 µM

## Input Requested read-out: TGI. Entry: `COc1cc(N=Nc2cccc(S(=O)(=O)O)c2)c(C)cc1N=Nc1ccc(/C=C/c2ccc(N=[N+]([O-])c3ccc(/C=C/c4ccc(N=Nc5cc(C)c(N=Nc6cccc(S(=O)(=O)O)c6)cc5OC)cc4)c(S(=O)(=O)O)c3)cc2S(=O)(=O)O)cc1`
## Output > 100 µM

## Input What measured TGI goes with `CC1(C)N=C(N)N=C(N)N1c1ccc(OCC(=O)Nc2cccc(S(=O)(=O)F)c2)c(Cl)c1` ?
## Output > 73.5 µM

## Input What does the data say about its TGI? Entry: `O=[N+]([O-])c1ccc2nc3ccc([N+](=O)[O-])cn3c2c1`
## Output > 100 µM

Measured values drawn from PubChem BioAssay (NCI) for this set.
